Collected MIC values appear next to each entry.
- Test system: P. aerug. Ps296 VIM-2
- Protocol: Broth microdilution MIC, P. aeruginosa Ps296
- Assay type: cell-based
- Applied Conditions: Pseudomonas aeruginosa; fixed meropenem 4 μg/mL, CAMHB, 16-20 hours 37° C.; read-out: MIC of exemplary compounds in presence of fixed β-lactams, Fixed Mero, P. aerug. Ps296 VIM-2

Reference set (2 entries):
Compound	Target Or System	MIC
NC1CC(CC(=O)N[C@H]2Cc3cccc(C(=O)O)c3OB2O)C1 (some centres unmarked) [Example 56]	P. aerug. Ps296 VIM-2	< 4 µg/mL
N=C(N)N1CCN([C@H]2CC[C@H](CC(=O)N[C@H]3Cc4cccc(C(=O)O)c4OB3O)CC2)CC1 [Example 24]	P. aerug. Ps296 VIM-2	8 to 32 µg/mL

Please give the measured MIC for this compound: COC(=O)NCCN[C@H]1CC[C@H](CC(=O)N[C@H]2Cc3cccc(C(=O)O)c3OB2O)CC1 [Example 54]
< 4 µg/mL

Field entry: O=C(C[C@H]1CC[C@H](N2C=NCC2)CC1)N[C@H]1Cc2cccc(C(=O)O)c2OB1O [Example 29]
8 to 32 µg/mL

Continue with N[C@@H](C(=O)N[C@H]1Cc2cccc(C(=O)O)c2OB1O)C1CCCCC1 [Example 42]
< 4 µg/mL

Moving on to CN(C)CCN(C)[C@H]1CC[C@H](CC(=O)N[C@H]2Cc3cccc(C(=O)O)c3OB2O)CC1 [Example 23]
> 32 µg/mL

Continue with O=C(C[C@H]1CC[C@H](NCCNc2ncccn2)CC1)N[C@H]1Cc2cccc(C(=O)O)c2OB1O [Example 72]
< 4 µg/mL

Try this compound next: NCCCN[C@H]1CC[C@H](CC(=O)N[C@H]2Cc3cccc(C(=O)O)c3OB2O)CC1 [Example 60]
< 4 µg/mL

Lookup CSCCN[C@H]1CC[C@H](CC(=O)N[C@H]2Cc3cccc(C(=O)O)c3OB2O)CC1 [Example 66]
8 to 32 µg/mL

What do you get for C[C@H](N)CN[C@H]1CC[C@H](CC(=O)N[C@H]2Cc3cccc(C(=O)O)c3OB2O)CC1 [Example 53] ?
< 4 µg/mL

Then what about the compound O=C(O)CN[C@H]1CC[C@H](CC(=O)N[C@H]2Cc3cccc(C(=O)O)c3OB2O)CC1 [Example 28] ?
8 to 32 µg/mL

Please do the same for CN(C)CC(=O)NC[C@H]1CC[C@H](CC(=O)N[C@H]2Cc3cccc(C(=O)O)c3OB2O)CC1 [Example 5] as well.
< 4 µg/mL

Queued: N=C(N)N[C@H]1CC[C@H](CCC(=O)N[C@H]2Cc3cccc(C(=O)O)c3OB2O)CC1 [Example 22]
8 to 32 µg/mL
